# Test system: BOKU
# methodSummary: Cytotoxicity against human BOKU cells measured after 8 days
# Format: functional, cell-based
# particulars: 192 h
measuredAttribute: pIC50
The read-out pIC50 is expressed as -log10 of concentration in moles per litre.

C/C=C/Cn1cc(-c2ccc(C(C)(C)O)cc2OC)c2cc[nH]c2c1=O :: 4.70

Please examine the following record next.
Can you share its pIC50? I mean this compound: C/C=C/Cn1cc(-c2ccc(C(=O)N3CCOCC3)cc2)c2cc[nH]c2c1=O
4.70

---

# methodSummary: Cytotoxicity against human COV504 cells measured after 3 days
# Assay type: functional, cell-based
# particulars: COV504, 72 h
measuredAttribute: IC50
Put your answer as a value accompanied by its unit after it.

Can you share its IC50? I mean this compound: C/C=C/Cn1cc(-c2cc(OC)c(C(=O)N3CCOCC3)cc2OC)c2cc(C)[nH]c2c1=O
5 µM
